Consider the following compounds; for each one, report its Ki.
# ASSAY TARGET: Neuronal acetylcholine receptor; alpha3/beta4 (Rattus norvegicus, UniProt P04757+P12392)
# Sequence (P04757 whole entry): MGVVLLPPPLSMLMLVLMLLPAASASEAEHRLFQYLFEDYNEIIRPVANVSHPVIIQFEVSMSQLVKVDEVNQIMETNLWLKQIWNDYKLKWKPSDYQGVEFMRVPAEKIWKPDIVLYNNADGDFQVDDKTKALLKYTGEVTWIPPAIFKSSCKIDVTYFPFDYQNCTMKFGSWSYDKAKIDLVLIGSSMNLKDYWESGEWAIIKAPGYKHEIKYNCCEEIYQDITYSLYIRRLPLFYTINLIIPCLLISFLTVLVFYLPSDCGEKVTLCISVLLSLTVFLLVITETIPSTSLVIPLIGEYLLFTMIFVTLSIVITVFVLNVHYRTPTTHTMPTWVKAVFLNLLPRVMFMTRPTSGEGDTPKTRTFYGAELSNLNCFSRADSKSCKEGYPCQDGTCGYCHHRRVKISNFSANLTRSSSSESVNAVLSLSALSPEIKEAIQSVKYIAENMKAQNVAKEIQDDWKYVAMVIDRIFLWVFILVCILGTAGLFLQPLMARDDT
# Sequence (P12392 whole entry): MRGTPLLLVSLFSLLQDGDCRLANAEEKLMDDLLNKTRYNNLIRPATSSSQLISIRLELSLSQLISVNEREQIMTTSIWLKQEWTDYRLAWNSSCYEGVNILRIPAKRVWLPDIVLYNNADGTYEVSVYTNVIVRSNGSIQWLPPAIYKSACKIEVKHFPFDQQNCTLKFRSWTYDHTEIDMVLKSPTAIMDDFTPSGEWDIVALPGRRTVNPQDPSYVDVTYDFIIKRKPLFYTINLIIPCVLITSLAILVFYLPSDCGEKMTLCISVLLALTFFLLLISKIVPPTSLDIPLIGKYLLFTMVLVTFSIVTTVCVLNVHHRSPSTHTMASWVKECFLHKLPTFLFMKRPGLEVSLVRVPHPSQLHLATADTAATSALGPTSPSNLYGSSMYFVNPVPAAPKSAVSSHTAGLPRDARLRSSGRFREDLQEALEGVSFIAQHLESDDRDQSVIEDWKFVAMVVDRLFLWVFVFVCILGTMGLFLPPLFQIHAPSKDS
# PROTOCOL DESCRIPTION: Displacement of [3H]epibatadine from rat alpha3beta4 nAChR expressed in HEK293 cells by scintillation counting analysis
Answers are plain numbers, in µM.

CCCCC#Cc1cncc(OC[C@@H]2CCCN2)c1 ... 18
c1ncc(-c2nnn3c2CCCC3)cc1OC[C@@H]1CCN1 ... 64
CCCCC#Cc1cncc(OC[C@H]2CCN2)c1 ... 5.2
OCCCCc1cn(-c2cncc(OC[C@@H]3CCN3)c2)nn1 ... 77
CCCCC#Cc1cncc(OC[C@@H]2CCN2)c1 ... 1.7

Batch request: Ki for each of the following compounds.
1. [N-]=[N+]=NCCCCC#Cc1cncc(OC[C@@H]2CCN2)c1
2. CCCCC#Cc1cncc(OC[C@H]2CCCN2)c1

1: 3.4; 2: 12

---

# Species: Rattus norvegicus
# PROTOCOL DESCRIPTION: Selectivity ratio of Ki for rat alpha3beta4 nAChR to Ki for rat alpha4beta2 nAChR
Consider the following compounds; for each one, report its Ratio Ki.
One number for each entry.

CCCCC#Cc1cncc(OC[C@H]2CCN2)c1 ... 10000
CCCCC#Cc1cncc(OC[C@H]2CCCN2)c1 ... 24000

Batch request: Ratio Ki for each of the following compounds.
1. c1ncc(-c2nnn3c2CCCC3)cc1OC[C@@H]1CCN1
2. CCCCC#Cc1cncc(OC[C@@H]2CCCN2)c1

6200
15000

---

# ASSAY TARGET: Neuronal acetylcholine receptor; alpha4/beta2 (Rattus norvegicus, UniProt P09483+P12390)
# Sequence (P09483 whole entry): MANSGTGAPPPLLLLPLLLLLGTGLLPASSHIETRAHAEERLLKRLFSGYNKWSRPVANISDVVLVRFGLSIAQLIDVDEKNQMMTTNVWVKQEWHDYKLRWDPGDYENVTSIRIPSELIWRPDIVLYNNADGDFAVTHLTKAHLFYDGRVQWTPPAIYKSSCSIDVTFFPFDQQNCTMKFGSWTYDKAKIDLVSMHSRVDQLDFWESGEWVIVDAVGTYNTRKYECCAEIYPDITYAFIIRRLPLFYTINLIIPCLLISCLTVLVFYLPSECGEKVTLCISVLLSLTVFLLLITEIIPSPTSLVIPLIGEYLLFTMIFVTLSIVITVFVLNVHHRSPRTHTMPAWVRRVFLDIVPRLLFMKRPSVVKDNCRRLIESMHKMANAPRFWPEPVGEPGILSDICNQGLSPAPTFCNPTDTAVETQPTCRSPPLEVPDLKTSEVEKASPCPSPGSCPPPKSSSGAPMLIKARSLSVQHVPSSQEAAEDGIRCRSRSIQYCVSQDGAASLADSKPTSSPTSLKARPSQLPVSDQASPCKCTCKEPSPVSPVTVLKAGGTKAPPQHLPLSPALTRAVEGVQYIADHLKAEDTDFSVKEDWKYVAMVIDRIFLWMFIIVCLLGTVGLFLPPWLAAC
# Sequence (P12390 whole entry): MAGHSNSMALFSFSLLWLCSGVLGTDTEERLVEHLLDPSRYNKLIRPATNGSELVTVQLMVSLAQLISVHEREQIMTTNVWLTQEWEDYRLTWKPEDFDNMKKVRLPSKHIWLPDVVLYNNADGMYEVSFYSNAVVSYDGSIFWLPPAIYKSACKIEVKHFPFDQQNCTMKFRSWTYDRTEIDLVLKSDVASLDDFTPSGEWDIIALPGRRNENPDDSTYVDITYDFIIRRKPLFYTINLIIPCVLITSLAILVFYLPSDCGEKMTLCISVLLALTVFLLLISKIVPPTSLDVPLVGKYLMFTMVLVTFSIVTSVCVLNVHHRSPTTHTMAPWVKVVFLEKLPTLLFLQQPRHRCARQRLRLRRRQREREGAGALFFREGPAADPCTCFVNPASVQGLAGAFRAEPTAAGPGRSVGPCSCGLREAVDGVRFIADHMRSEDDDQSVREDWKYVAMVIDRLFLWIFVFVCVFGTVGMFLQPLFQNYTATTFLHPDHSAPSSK
# PROTOCOL DESCRIPTION: Displacement of [3H]epibatadine from rat alpha4beta2 nAChR expressed in HEK293 cells by scintillation counting analysis
# Format: cell-based
READOUT TYPE: pKi
One number for each entry, as −log10 of the molar value.

Consider the following illustrative entries.
CCCCC#Cc1cncc(OC[C@@H]2CCN2)c1 ... 10.00
CCCCC#Cc1cncc(OC[C@@H]2CCCN2)c1 ... 8.92

Batch request: pKi for each of the following molecules.
1. CCCCC#Cc1cncc(OC[C@H]2CCCN2)c1
2. OCCCCc1cn(-c2cncc(OC[C@@H]3CCN3)c2)nn1

[9.31, 8.89]

Batch request: pKi for each of the following molecules.
1. [N-]=[N+]=NCCCCC#Cc1cncc(OC[C@@H]2CCN2)c1
2. CCCCC#Cc1cncc(OC[C@H]2CCN2)c1

[10.07, 9.30]

Reported pKi, molecule c1ncc(-c2nnn3c2CCCC3)cc1OC[C@@H]1CCN1 : ____
8.00

---

# Organism: Rattus norvegicus
# PROTOCOL DESCRIPTION: Selectivity ratio of Ki for rat alpha3beta4 nAChR to Ki for rat alpha4beta2 nAChR
READOUT TYPE: Ratio Ki
Answers are plain numbers.

Consider the following illustrative entries.
OCCCCc1cn(-c2cncc(OC[C@@H]3CCN3)c2)nn1 ... 59000
CCCCC#Cc1cncc(OC[C@@H]2CCN2)c1 ... 17000

Reported Ratio Ki, compound [N-]=[N+]=NCCCCC#Cc1cncc(OC[C@@H]2CCN2)c1 : ____
40000
